pIC50 values by entry
# test protocol: Inhibition of Escherichia coli BL21(DE3) LpxC C63A mutant using UDP-3-O-(R-3-hydroxymyristoyl)-N-acetylglucosamine as substrate incubated for 30 mins by o-phthaldialdehyde-2-mercaptoethanol based fluorescence assay
// pIC50 is dimensionless: -log10 of concentration (M)

Some compounds with known pIC50 results, for comparison:
>>> number("O=C(NO)[C@@H](CO)O[C@@H](CO)c1ccc(C#Cc2ccc(CN3CCOCC3)cc2)cc1")
3.74
>>> number("O=C(NO)[C@H]1O[C@H](c2ccc(C#Cc3ccccc3)cc2)[C@@H](O)[C@H]1O")
4.37

### Prompt Find the measured pIC50 of "O=C(NO)[C@H](CO)O[C@H](CO)c1ccc(C#CC#Cc2ccccc2)cc1" and report it.
### Response 5.77

### Prompt Find the measured pIC50 of "O=C(NO)[C@@H]1O[C@@H](c2ccc(C#Cc3ccccc3)cc2)[C@@H](O)[C@H]1O" and report it.
### Response 4.62

This collection of values is drawn from ChEMBL document CHEMBL3769393.
